Values from PubChem BioAssay

EXPERIMENT NOTES: blockers of RIG-like receptor reporter activation – cell-based, Sendai virus stimulus, luciferase, 10K MLSCN set, TLR/RLR signaling modifier project, primary screen (AID 602276);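 further: firefly luciferase from ISG56 promoter only with Renilla not read in this screen; 0% = Sendai virus plus DMSO and 100% = medium plus DMSO without virus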
TEST SETTINGS: HEK293 RL24 IRF3 luciferase reporter, at 10 µM, hits give high values
Where a SMILES comes first, the peptide text is derived from it. The star is where a group is joined. Boc = CC(C)(C)OC(=O)*
// values below are reported inhibition
REPORTED ENDPOINT: inhibition (%)

COMPOUND	VALUE REPORTED
CSC1=C(C#N)C(c2ccc(Cl)cc2)C2=C(CC(C)(C)CC2=O)N1 (stereo not drawn)	1.71
CSc1nc2ccc(Nc3nc(N4CCOCC4)nc(N4CCOCC4)n3)cc2s1	-24.9
O=C(NCCCN1CCOCC1)c1cc(-c2ccc(O)cc2)on1	2.55
Cc1sc2nc(CN3CCN(S(=O)(=O)c4cccc5nonc45)CC3)[nH]c(=O)c2c1C	3.59
CC(NC(=O)OC(C)(C)C)C(=O)N1CCCC1C(=O)NC(Cc1ccccc1)C(N)=O (stereo not drawn) (Boc-Ala-Pro-Phe-NH2; configuration not given here)	19.8
Cc1ccc(CN2C(=O)CCC2C(=O)NCCCN2CCC(C)CC2)cc1 (stereo not drawn)	14.7
CCOc1ccccc1CN(Cc1ccco1)S(=O)(=O)c1ccc(-n2cnnn2)c(OC)c1	-53.6
COC(=O)c1sc(N2C(=O)C(O)=C(C(=O)c3ccc(C)o3)C2c2ccc(F)cc2)nc1C (stereo not drawn)	18.3
Cc1cccc(-c2c3c(=O)n(C)c(=O)n(C)c3cn2-c2ccc(O)cc2)c1	6.51
COCCn1c(CN2CCN(c3cccc(Cl)c3)CC2)nc2c1c(=O)n(C)c(=O)n2C	12.7
Cc1cc(C)cc(NC(=O)CCNS(=O)(=O)c2ccc3c(c2)oc(=O)n3C)c1	20.7
O=C1C2CC=C(Cl)CC2C(=O)N1c1ncn[nH]1 (stereo not drawn)	12.6
CCSc1nnc(NC(=O)c2csc(C)c2)s1	-36.6

----------
// inhibition lookup, one value per entry
EXPERIMENT NOTES: inhibitors of TNFa-induced NFkB p65 translocation, primary screen, imaging, HUVEC, MLSMR starter and 10KST1 sets (AID 438);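 further: compound added about 3h40 before a 20 min TNFalpha stimulation; signal is the nuclear over cytoplasmic p65 intensity ratio per well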
TEST SETTINGS: HUVEC TNFa-induced p65 nuclear translocation; at 2 µM, hits give high values, 0% TNFa-plus-vehicle, 100% no-TNFa wells
REPORTED ENDPOINT: inhibition (%)

> print(dat)
                                    compound  value.reported
 1  CC(C)CN(C(=O)COC(=O)Cc1n[nH]c(=O)c2ccccc12)C1CCS(=O)(=O)C1 (stereo unspecified)             1.7
 2         O=C(Nc1ncnc2sc3c(c12)CCC3)c1ccco1            -1.6
 3  CCc1ccc(NC(=O)C2CC(=O)N(C(C)C)C2)cc1 (stereo unspecified)            -6.8
 4  COC(=O)c1ccccc1NC(=O)c1ccc(COc2ccccc2)o1            -8.3
 5          COc1cccc(NC(=O)COC(=O)c2ccco2)c1              -4
 6  O=C(CSc1n[nH]c(-c2cccs2)n1)N1CCN(S(=O)(=O)c2ccccc2)CC1            13.3
 7  Cc1ccc(-n2nnnc2SCC(=O)c2cc(C)n(CC3CCCO3)c2C)cc1 (stereo unspecified)             6.3
 8           CCCCn1c2c(c3ccccc31)CCc1nonc1-2              -4
 9        Cc1cc2nc(-c3ccco3)cc(C(F)(F)F)n2n1             3.5
10  CCOC(=O)c1c(C)[nH]c(C(=O)Cn2c(=O)oc3ccccc32)c1C             7.6
11   Cc1onc(-c2ccccc2Cl)c1C(=O)N1CCc2ccccc21            -1.3
